Exercise: state measured IC20 for each of the compounds provided.
Target: human TRβ-LBD (Homo sapiens, UniProt P10828)
Construct: purchased Zhongding Biotechnology Co. Ltd
Sequence (P10828 217-461 limits assumed): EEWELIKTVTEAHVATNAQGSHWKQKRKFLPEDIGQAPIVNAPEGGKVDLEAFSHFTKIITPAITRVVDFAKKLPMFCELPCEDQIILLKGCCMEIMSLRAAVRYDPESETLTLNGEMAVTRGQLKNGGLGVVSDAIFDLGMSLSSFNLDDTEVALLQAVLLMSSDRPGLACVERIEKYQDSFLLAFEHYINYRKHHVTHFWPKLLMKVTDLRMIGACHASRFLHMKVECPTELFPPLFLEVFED
Test: TRβ-LBD fluorescence polarization competitive binding assay (F-T3 probe)
Conditions: […] nM TRβ-LBD, 50 nM F-T3, pH 7.5, 25°C; linear interpolation; read-out: TRβ-LBD IC20
Write the answer as a number in nM, unit excluded.

Give the reported IC20 for this compound. C=CCOc1c(Br)cc(C(C)(C)c2cc(Br)c(O)c(Br)c2)cc1Br
4000

Give the reported IC20 for this compound. CC(C)(c1cc(Br)c(O)c(Br)c1)c1cc(Br)c(O)c(Br)c1 [TBBPA, Tetrabromobisphenol A, reference compound]
5000

Give the reported IC20 for this compound. CC(C)(c1cc(Br)c(O)c(Br)c1)c1cc(Br)c(OCC2CO2)c(Br)c1 (stereo not shown)
6000

Give the reported IC20 for this compound. CC(C)(c1cc(Br)c(OCC2CO2)c(Br)c1)c1cc(Br)c(OCC2CO2)c(Br)c1 (stereo not shown)
25000

Origin of the recorded values: paper PMC7584160
